target: APOL1 G1 (Homo sapiens, UniProt O14791, I384M/S342G); experiment: MultiTox-Fluor Multiplex Cytotoxicity Assay, tet-inducible APOL1 G1 T-REx-HEK293 cells; type: cell-based; set-up: expressed in transfected cells; host or cells: T-REx HEK293, clone G1 DC3.25 (pAAVS1-Puro-APOL1 G1); conditions: HEK293, Multi-Tox Assay; APOL1 variant (G0/G1/G2) of the HEK293 cells not given; read-out: Multi-Tox Assay IC90
Sequence (O14791 28-398 S342G/I384M): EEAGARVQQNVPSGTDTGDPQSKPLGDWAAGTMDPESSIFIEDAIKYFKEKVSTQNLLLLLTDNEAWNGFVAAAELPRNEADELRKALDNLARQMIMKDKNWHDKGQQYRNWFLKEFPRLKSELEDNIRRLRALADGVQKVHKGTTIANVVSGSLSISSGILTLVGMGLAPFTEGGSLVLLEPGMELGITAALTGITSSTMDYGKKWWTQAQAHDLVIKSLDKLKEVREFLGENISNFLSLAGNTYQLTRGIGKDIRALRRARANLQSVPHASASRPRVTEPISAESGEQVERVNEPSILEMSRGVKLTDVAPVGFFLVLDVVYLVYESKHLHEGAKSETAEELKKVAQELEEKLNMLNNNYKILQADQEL
// reported IC90 for each item listed

CC(C)N1CC(Cn2cc([C@@H]3C[C@]4(C[C@H](C)N3)OC[C@@H](O)c3cc(Cl)sc34)nn2)CC1=O (stereo partly drawn) [Compound 287] | 50 to 500 nM
Cc1ccc([C@@H]2C[C@]3(C[C@H](C)N2)OCCc2cc(Cl)sc23)nc1 (racemic) [Compound 77] | < 50 nM
C[C@H]1C[C@@]2(C[C@@H](c3cn(CCC4CCCOC4)nn3)N1)OC[C@@H](O)c1cc(Cl)sc12 (stereo partly drawn) [Compound 273] | 50 to 500 nM
C[C@H]1C[C@@]2(C[C@@H](c3c[nH]c(C4CC4)n3)N1)OCCc1cc(Cl)sc12 (racemic) [Compound 130] | 50 to 500 nM
C[C@H]1C[C@@]2(C[C@@H](c3cn(CC4CCS(=O)(=O)C4)nn3)N1)OC[C@@H](O)c1cc(Cl)sc12 (stereo partly drawn) [Compound 265] | 50 to 500 nM

# return recorded IC90 for entry C[C@H]1CC2(C[C@@H](c3cn(C)nn3)N1)OCC(C)(C)c1sc(Cl)cc12 (single isomer, unassigned) [Compound 15]
< 50 nM

Input C[C@H]1C[C@@]2(C[C@@H](c3cn(Cc4ccc(S(C)(=O)=O)cc4)nn3)N1)OCC(F)(F)c1cc(Cl)sc12 [Compound 355] , output reported IC90.
50 to 500 nM

Hello, please tell me recorded IC90 for this one: C[C@H]1C[C@@]2(C[C@@H](c3cn(Cc4cccc5c4OCCO5)nn3)N1)OCC(F)(F)c1cc(Cl)sc12 [Compound 310]
> 500 nM

Respond only with IC90 recorded for Cc1nocc1[C@@H]1C[C@]2(C[C@H](C)N1)OCCc1cc(Cl)sc12 (racemic) [Compound 132]
50 to 500 nM

Using known records, supply IC90 for CC(C)C(=O)NCCn1cc([C@@H]2C[C@]3(C[C@H](C)N2)OCC(F)(F)c2cc(Cl)sc23)nn1 [Compound 345]
50 to 500 nM

Specify measured IC90 for C[C@H]1C[C@@]2(C[C@@H](c3ccc(C(=O)NC4CC4)cc3)N1)OCCc1cc(Cl)sc12 (racemic) [Compound 71] .
< 50 nM

// Input: Clc1cc2c(s1)C1(C[C@@H](C3CC3)N[C@@H](C3CC3)C1)OCC2 (single isomer, unassigned) [Compound 206] . Output its IC90 only.
50 to 500 nM

Answer with the recorded IC90 of C[C@H]1C[C@@]2(C[C@@H](c3cn(CCc4ccncn4)nn3)N1)OC[C@@H](O)c1cc(Cl)sc12 [Compound 262] only.
50 to 500 nM

Return reported IC90. Input compound: C[C@H]1C[C@@]2(C[C@@H](c3cn(C)nn3)N1)OC[C@@H](O)c1sc(Cl)cc12 [Compound 182]
< 50 nM

Give the reported IC90 for this compound. CC1CC2(CC(c3cccnc3)N1)OCCc1cc(Cl)sc12 (racemic) [Compound 20]
< 50 nM

Hello, please tell me recorded IC90 for this one: C[C@H]1C[C@@]2(C[C@@H](c3cn(CCC(C)(C)O)nn3)N1)OC[C@@H](O)c1cc(Cl)sc12 [Compound 252]
50 to 500 nM

Give a short answer stating reported IC90 for C[C@H]1C[C@@]2(C[C@@H](c3cn(Cc4nc5ncccc5[nH]4)nn3)N1)OCC(F)(F)c1cc(Cl)sc12 [Compound 346] .
50 to 500 nM

Identify measured IC90 corresponding to CC(CO)CCn1cc([C@@H]2C[C@]3(C[C@H](C)N2)OCC(F)(F)c2cc(Cl)sc23)nn1 (stereo partly drawn) [Compound 306]
> 500 nM

Measured values drawn from patent EP4810040A2 for this set.
